For each record, write down the corresponding residual activity.
molecular target: Calcium/calmodulin-dependent protein kinase type II subunit gamma (Homo sapiens); conditions: at 1 µM
One number for each entry, in %.

See these solved cases before continuing.
INSERT INTO results (molecule, value_reported) VALUES
  ('O=C1NC(=O)/C(=C/c2ccc3c(c2)OC(F)(F)O3)S1', 102),
  ('CO[C@H]1C[C@@H]2CC[C@@H](C)[C@@](O)(O2)C(=O)C(=O)N2CCCC[C@H]2C(=O)O[C@H]([C@H](C)C[C@@H]2CC[C@@H](O)[C@H](OC)C2)CC(=O)[C@H](C)/C=C(\C)[C@@H](O)[C@@H](OC)C(=O)[C@H](C)C[C@H](C)/C=C/C=C/C=C/1C', 103),
  ('Cn1cnc2cc3c(Nc4cccc(Br)c4)ncnc3cc21', 85),
  ('Cc1cc(Nc2nc(-c3ccccc3)nc3ccccc23)n[nH]1', 60),
  ('O=C1Nc2ccc(Br)cc2/C1=C\c1cc2c([nH]1)CCCC2', 20);

Parameter requested: residual activity. Apply to each item below.
1. O=C1c2ccccc2-[n+]2ccc3c([nH]c4ccccc43)c21
2. CCC(=O)Nc1ccc2ncnc(Nc3cccc(Br)c3)c2c1
3. CN(C)CCCn1cc(C2=C(c3c[nH]c4ccccc34)C(=O)NC2=O)c2ccccc21
4. O=C1NC(=O)c2cc(Nc3ccc(F)cc3)c(Nc3ccc(F)cc3)cc21
5. COc1cc2ncnc(Nc3ccc(Oc4ccccc4)cc3)c2cc1OC
6. COc1cc2ncnc(Nc3ccc(O)c(Br)c3)c2cc1OC
7. Cc1cncc2cccc(S(=O)(=O)N3CCCN(C(=O)CN)C[C@H]3C)c12
8. O=C1Nc2ccccc2/C1=C1/Nc2ccccc2/C1=N\OCCC(O)CO (stereo unspecified)

Ans.
1: 103; 2: 100; 3: 28; 4: 111; 5: 102; 6: 68; 7: 95; 8: 6

---

For each record, write down the corresponding residual activity.
biological target: Protein kinase C beta type (Homo sapiens); settings: at 1 µM
Give bare numbers, in %.

INSERT INTO measurements (mol_smiles, units_text, value_reported) VALUES
  ('Cc1cncc2cccc(S(=O)(=O)N3CCCN(C(=O)CN)C[C@H]3C)c12', '%', 82);

Parameter requested: residual activity. Apply to each item below.
1. CC#CC(=O)Nc1cc2c(Nc3ccc(F)c(Cl)c3)ncnc2cn1
2. CC(C)n1cnc2c(NCc3ccccc3)nc(NCCCO)nc21
3. CC[n+]1c(/C=C/N(C)c2ccccc2)n(-c2ccccc2)c2ccc(-c3nc4ccccc4s3)cc21
4. COc1cc2ncnc(Nc3ccc(Oc4ccccc4)cc3)c2cc1OC
5. CO[C@@H]1[C@H](N(C)C(=O)c2ccccc2)C[C@H]2O[C@]1(C)n1c3ccccc3c3c4c(c5c6ccccc6n2c5c31)C(=O)NC4
6. Cc1ccc(NC2=CC(=O)c3sc(C)nc3C2=O)cc1

Ans.
[113, 106, 103, 120, 66, 98]

Parameter requested: residual activity. Apply to each item below.
1. O=C(O)c1ccc2c3c1cccc3c(=O)n1c3ccccc3nc21
2. N#C/C(=C(\N)Sc1ccc(N)cc1)c1ccccc1C(F)(F)F
3. Cn1cc(/C=C2\C(=O)Nc3ccc(S(N)(=O)=O)cc32)c2ccccc21

Ans.
[125, 114, 111]
